Experimental Protocol: Selectivity index, CC50 for human C8166 cells to EC50 for HIV1 3B
Format: toxicity, cell-based
Experimental Setup: read-out: Ratio CC50/EC50

Compound | selectivity ratio
C[C@@H]1C(=O)[C@@]2(C)CC[C@]34C[C@]56OC(=O)C[C@H]5OC(C)(C)[C@@H]6C[C@H](O)[C@H]3C(=O)[C@@]3(O[C@H]5[C@H](OC(=O)[C@]5(C)O)[C@@H]1[C@H]32)O4 [LANCIFODILACTONE L] | > 2
CC1=C[C@@H]([C@H]2[C@H](C)C(=O)[C@@]3(C)CC[C@]45C[C@]67OC(=O)C[C@H]6OC(C)(C)[C@@H]7CC=C4C(=O)[C@@](O)(O5)[C@@H]23)OC1=O [LANCIFODILACTONE K] | > 2.55
CC(=O)O[C@H]1C[C@H]2C(C)(C)O[C@@H]3CC(=O)O[C@@]32C[C@]23CC[C@]4(C)C(=O)[C@@H](C)[C@H]([C@@H]5C=C(C)C(=O)O5)[C@@H]4[C@](O)(O2)C(=O)[C@H]13 [LANCIFODILACTONE J] | > 2.26
C[C@@H]1C(=O)[C@@]2(C)CC[C@]34C[C@]56OC(=O)C[C@H]5OC(C)(C)[C@@H]6CC=C3C(=O)[C@@]3(O[C@H]5[C@H](OC(=O)[C@]5(C)O)[C@@H]1[C@H]32)O4 [LANCIFODILACTONE N] | 2.4

----------
Experimental Protocol: Selectivity index, CC50 for human C8166 cells to EC50 for HIV1 3B
Type: toxicity, cell-based
Experimental Setup: read-out: Ratio CC50/EC50

Chemical Smiles | selectivity ratio
CC1=C[C@@H]([C@H]2[C@H](C)C(=O)[C@@]3(C)CC[C@]45C[C@]67OC(=O)C[C@H]6OC(C)(C)[C@@H]7C[C@H](O)[C@H]4C(=O)[C@@](O)(O5)[C@@H]23)OC1=O | > 2.08
CC1=C2[C@H]3OC(=O)[C@@H](C)[C@H]3O[C@]34O[C@@]5(CC[C@](C)(C1=O)[C@H]23)C[C@]12OC(=O)C[C@H]1OC(C)(C)[C@@H]2C[C@H](O)[C@H]5C4=O | > 2.61
Cc1cn([C@H]2C[C@H](N=[N+]=[N-])[C@@H](CO)O2)c(=O)[nH]c1=O | > 60600
